Here the recorded Effectiveness Covered (%) (decline in TMV lesions vs UTC, systemic response) is given for each entry.
Test system: tobacco mosaic virus (TMV)
assay overview: Induction of resistance to tobacco mosaic virus in tobacco
Format: in vivo
condition description: spray 20 ug/ml, TMV 3 days post-treatment, scored 3 days after inoculation
Marks after values point to notes of the source that are not given here.
parameter measured: Effectiveness Covered (%) (decline in TMV lesions vs UTC, systemic response)

- substance: "QDPMQALMQLLEDLVKLDK (P14d-18D)"
  endpoint result: "32%"
- substance: "SEEEEEALEQLLEDLVKLL (P14-31)"
  endpoint result: "87* %"
- substance: "SEEEEELTGVLQKLLK_ILE (SEEEEELTGVLQKLLKILE; P25-12)"
  endpoint result: "58%"
- substance: "SEEEEELQQLLKLFSEILQ (P3-10)"
  endpoint result: "95* %"
- substance: "GGLTLTGVDQKLMKILNALVQ (P25-9D)"
  endpoint result: "55%"
- substance: "QDPMQALMQLLEDLDKLLK (P14d-15D)"
  endpoint result: "74* %"
- substance: "QAGPQSANKTGNVDDANNQDPAQALEQLLEDLV (P14-22A,26E)"
  endpoint result: "85* %"
- substance: "QAGPQSANKTGNVDDANNQDPEQALEQLLEDLV (P14-22E,26E)"
  endpoint result: "62%"
- substance: "KPNDSQSNIAKLISALIMSLSQ (P15b-21S)"
  endpoint result: "97* %"
- substance: "SEEEEELEQLLEDLV (P14-39)"
  endpoint result: "66* %"
- substance: "QAGPQSANKTGNVDDANNQDPLQALAQLLEDLV (P14-22L,26A)"
  endpoint result: "83* %"
- substance: "SEEEELDQLLTQLI (P1-31)"
  endpoint result: "88* %"
- substance: "SEEEEELKASLKLIARLL (P19min-10S)"
  endpoint result: "94* %"
- substance: "SEEEEELQKLLK_ILEALV (SEEEEELQKLLKILEALV; P25-9)"
  endpoint result: "87* %"
- substance: "QAGPQSANKTGNVDDANNQDPLQALLQLLEDLV (P14-22L,26L)"
  endpoint result: "67* %"
- substance: "KPNDSQSNIAKSISALIMSLLQ (P15b-12S)"
  endpoint result: "47%"
- substance: "KPNDSQSNIAKLISALI (P15-62)"
  endpoint result: "−122%"
- substance: "SEEEEELKALSKLIARLL (P19min-11S)"
  endpoint result: "45%"
- substance: "QDPAQALEQLLEDLVKSLK (p14f-17S)"
  endpoint result: "84* %"
- substance: "SEEEEELAQLLAQLL (P18-9)"
  endpoint result: "52%"
- substance: "QDPMQALMQLDEDLVKLLK (P14d-11D)"
  endpoint result: "87* %"
- substance: "QDPMQALMQLLEDDVKLLK [P14d-14D]"
  endpoint result: "35%"
- substance: "QAGPQSANKTGNVDDANNQDPE_ALAQLLEDLV (QAGPQSANKTGNVDDANNQDPEALAQLLEDLV; P14-22E,26A)"
  endpoint result: "88* %"
- substance: "SEEEEELEQLLEDLVKLL (P14-32)"
  endpoint result: "82* %"
- substance: "SEEEEEEEIAKLISALIESLL (P15-60)"
  endpoint result: "13%"
- substance: "QAGPQSANKTGNVDDANNQDPAQALLQLLEDLV (P14-22A,26L)"
  endpoint result: "62%"
- substance: "QDPMQASMQLLEDLVKLLK (P14d-7S)"
  endpoint result: "23%"
- substance: "QQPIDRQTIEQMAQLLAQLL (P18-8)"
  endpoint result: "78* %"
- substance: "QAGPQSANKTGNVDDANNQDPEQALLQLLEDLV (P14-22E,26L)"
  endpoint result: "84* %"
- substance: "SEEEELDQLLSQLI (P4-115)"
  endpoint result: "87* %"
- substance: "SEEEEEEIAKLISALI (P15-63)"
  endpoint result: "74* %"
- substance: "PSPFTQMLMHSVGEILQAQN (P6a-11S)"
  endpoint result: "88* %"
- substance: "SEEEEEDAQLLAQLLKSLL (P18min-7D)"
  endpoint result: "29%"
- substance: "SEEEEELKALLKSIARLL (P19min-13S)"
  endpoint result: "−70%"
- substance: "SEEEEELTGVLQKLSKILEAL (P25min-15S)"
  endpoint result: "74* %"
- substance: "SEEEEELLQLLEDLV (P14-41)"
  endpoint result: "61* %"
- substance: "QDPMQALMQLLEDLVKDLK (P14d-17D)"
  endpoint result: "65* %"
- substance: "SEEEEELAQLSAQLLKSLL (P18min-11S)"
  endpoint result: "−274%"
- substance: "SEEEEEEEIAKLIS_LIESLL (SEEEEEEEIAKLISLIESLL; P15-61)"
  endpoint result: "7%"
- substance: "QDPMQADMQLLEDLVKLLK (P14d-7D)"
  endpoint result: "55* %"
- substance: "QAGPQSANKTGNVDDANNQDPLQALEQLLEDLV (P14-22L,26E)"
  endpoint result: "91* %"
- substance: "PSPFTQMLMHIVGEDLQAQN (P6a-15D)"
  endpoint result: "74* %"
- substance: "QDPMQALMQDLEDLVKLLK (P14d-10D)"
  endpoint result: "84* %"
- substance: "SEEEEELTLTGVLQKLLKIL (P25-14)"
  endpoint result: "−87%"

Origin of the recorded values: patent US10524472B2
